Tested on: 845751-090-R-J2-PDC tumor spheroid viability
Test: Anticancer human tumor 845751-090-R-J2-PDC patient-derived head and neck squamous carcinoma cell line growth inhibition [IpAb]
Settings: second compound 0.01 µM; first compound 1 µM; stronger effect = lower value; spheroids with HUVEC and MSC
Parameter: viability, T/C. Scope: all listed entries.

Here's what some known entries look like.
Compound: CCCS(=O)(=O)Nc1ccc(F)c(C(=O)c2c[nH]c3ncc(-c4ccc(Cl)cc4)cc23)c1F + CCN1CCN(Cc2ccc(Nc3ncc(F)c(-c4cc(F)c5nc(C)n(C(C)C)c5c4)n3)nc2)CC1
Property name: viability, T/C
Reading: 50.7%
//
Compound: CC1(C)CCC(CN2CCN(c3ccc(C(=O)NS(=O)(=O)c4ccc(NCC5CCOCC5)c([N+](=O)[O-])c4)c(Oc4cnc5[nH]ccc5c4)c3)CC2)=C(c2ccc(Cl)cc2)C1 + CCN1CCN(Cc2ccc(Nc3ncc(F)c(-c4cc(F)c5nc(C)n(C(C)C)c5c4)n3)nc2)CC1
Property name: viability, T/C
Reading: 91.3%
//
Compound: COc1c(OCCCN2CCOCC2)ccc2c3n(c(=NC(=O)c4cnc(N)nc4)nc12)CCN3 + CCN1CCN(Cc2ccc(Nc3ncc(F)c(-c4cc(F)c5nc(C)n(C(C)C)c5c4)n3)nc2)CC1
Property name: viability, T/C
Reading: 4.54%
//
Compound: C=CCn1c(=O)c2cnc(Nc3ccc(N4CCN(C)CC4)cc3)nc2n1-c1cccc(C(C)(C)O)n1 + CCN1CCN(Cc2ccc(Nc3ncc(F)c(-c4cc(F)c5nc(C)n(C(C)C)c5c4)n3)nc2)CC1
Property name: viability, T/C
Reading: 57.4%

Lab note: Cn1ncc(Cl)c1-c1cc(C(=O)NC(CN)Cc2cccc(F)c2)sc1Cl (stereo not given) + CCN1CCN(Cc2ccc(Nc3ncc(F)c(-c4cc(F)c5nc(C)n(C(C)C)c5c4)n3)nc2)CC1 gave viability, T/C of 32.3%

* * *

Tested on: 845751-090-R-J2-PDC tumor spheroid viability
Experiment: Anticancer human tumor 845751-090-R-J2-PDC cell line growth inhibition [IpAb]
Conditions: second compound 0.316 µM; first compound 3 µM; stronger effect = lower value; spheroids with HUVEC and MSC
Entries and their measured viability, T/C follow.

Example cases with answers are listed next.
Molecule: CC(C)(C)c1cnc(CSc2cnc(NC(=O)C3CCNCC3)s2)o1 + CC(C)NCC(C(=O)N1CCN(c2ncnc3c2C(C)CC3O)CC1)c1ccc(Cl)cc1
Reading: 0.95%
--
Molecule: Cn1cnc2c(F)c(Nc3ccc(Br)cc3Cl)c(C(=O)NOCCO)cc21 + CCN1CCN(Cc2ccc(Nc3ncc(F)c(-c4cc(F)c5nc(C)n(C(C)C)c5c4)n3)nc2)CC1
Reading: 97.2%
--
Molecule: Cn1cnc2c(F)c(Nc3ccc(Br)cc3Cl)c(C(=O)NOCCO)cc21 + CC(C)NCC(C(=O)N1CCN(c2ncnc3c2C(C)CC3O)CC1)c1ccc(Cl)cc1
Reading: 5%

// next entry
Looking up CC(C)(C)c1cnc(CSc2cnc(NC(=O)C3CCNCC3)s2)o1 + CCN1CCN(Cc2ccc(Nc3ncc(F)c(-c4cc(F)c5nc(C)n(C(C)C)c5c4)n3)nc2)CC1 , I found its viability, T/C recorded as 0.6%

* * *

Test system: 845751-090-R-J2-PDC tumor spheroid viability
Assay: Anticancer human tumor 845751-090-R-J2-PDC cell line growth inhibition [IpAb];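 also: spheroids exposed to compounds for 7 days before readout; CTG3D luminescence normalised so that 100% = DMSO vehicle control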
Conditions: second compound 3.16 µM; first compound 10 µM; stronger effect = lower value; spheroids with HUVEC and MSC
Property name: viability, T/C

Illustrative cases are given below, each with its answer.
Compound: CCCS(=O)(=O)Nc1ccc(F)c(C(=O)c2c[nH]c3ncc(-c4ccc(Cl)cc4)cc23)c1F + CC(C)NCC(C(=O)N1CCN(c2ncnc3c2C(C)CC3O)CC1)c1ccc(Cl)cc1
viability, T/C: 16.3%
--
Compound: C=CCn1c(=O)c2cnc(Nc3ccc(N4CCN(C)CC4)cc3)nc2n1-c1cccc(C(C)(C)O)n1 + CC(C)NCC(C(=O)N1CCN(c2ncnc3c2C(C)CC3O)CC1)c1ccc(Cl)cc1
viability, T/C: 11.9%
--
Compound: Cn1nccc1Nc1nccc(-c2ccn(C(CO)c3ccc(Cl)c(F)c3)c(=O)c2)n1 (stereo not given) + CC(C)NCC(C(=O)N1CCN(c2ncnc3c2C(C)CC3O)CC1)c1ccc(Cl)cc1
viability, T/C: 3.12%
--
Compound: Cn1ncc(Cl)c1-c1cc(C(=O)NC(CN)Cc2cccc(F)c2)sc1Cl (stereo not given) + CC(C)NCC(C(=O)N1CCN(c2ncnc3c2C(C)CC3O)CC1)c1ccc(Cl)cc1
viability, T/C: 0.54%

Attention now shifts to the item below.
viability, T/C for Cc1nc(NC(=O)N2CCCC2C(N)=O)sc1-c1ccnc(C(C)(C)C(F)(F)F)c1 (stereo not given) + CC(C)NCC(C(=O)N1CCN(c2ncnc3c2C(C)CC3O)CC1)c1ccc(Cl)cc1 is 7.77%

* * *

Test system: 845751-090-R-J2-PDC tumor spheroid viability
Assay: Anticancer human tumor 845751-090-R-J2-PDC cell line growth inhibition [IpAb];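 also: spheroids exposed to compounds for 7 days before readout; CTG3D luminescence normalised so that 100% = DMSO vehicle control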
Conditions: second compound 0.1 µM; first compound 3.16 µM; stronger effect = lower value; spheroids with HUVEC and MSC
Property name: viability, T/C (%)
Give the quantity in %, number only.

Reported viability, T/C for CCCS(=O)(=O)Nc1ccc(F)c(C(=O)c2c[nH]c3ncc(-c4ccc(Cl)cc4)cc23)c1F + CCN1CCN(Cc2ccc(Nc3ncc(F)c(-c4cc(F)c5nc(C)n(C(C)C)c5c4)n3)nc2)CC1 was 23.2

Memo: CC1(C)CCC(CN2CCN(c3ccc(C(=O)NS(=O)(=O)c4ccc(NCC5CCOCC5)c([N+](=O)[O-])c4)c(Oc4cnc5[nH]ccc5c4)c3)CC2)=C(c2ccc(Cl)cc2)C1 + CCN1CCN(Cc2ccc(Nc3ncc(F)c(-c4cc(F)c5nc(C)n(C(C)C)c5c4)n3)nc2)CC1 , reported viability, T/C: 117

The reported viability, T/C of the compound C=CC(=O)N1CCN(c2nc(=O)n(-c3c(C)ccnc3C(C)C)c3nc(-c4c(O)cccc4F)c(F)cc23)C(C)C1 (stereo not drawn) + CC(C)NCC(C(=O)N1CCN(c2ncnc3c2C(C)CC3O)CC1)c1ccc(Cl)cc1 was 22.1

* * *

System: 845751-090-R-J2-PDC tumor spheroid viability
Test: Anticancer human tumor 845751-090-R-J2-PDC cell line growth inhibition [IpAb];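 also: spheroids exposed to compounds for 7 days before readout; CTG3D luminescence normalised so that 100% = DMSO vehicle control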
Conditions: second compound 0.316 µM; first compound 0.0316 µM; stronger effect = lower value; spheroids with HUVEC and MSC
// viability, T/C lookup, one value per entry
The reply should contain only the number, in %.

Take a look at these entries with their results.
Compound: Cc1nc(NC(=O)N2CCCC2C(N)=O)sc1-c1ccnc(C(C)(C)C(F)(F)F)c1 (stereo not drawn) + CCN1CCN(Cc2ccc(Nc3ncc(F)c(-c4cc(F)c5nc(C)n(C(C)C)c5c4)n3)nc2)CC1
viability, T/C, %: 51.2
//
Compound: CC(C)n1nc(-c2ccc3oc(N)nc3c2)c2c(N)ncnc21 + CCN1CCN(Cc2ccc(Nc3ncc(F)c(-c4cc(F)c5nc(C)n(C(C)C)c5c4)n3)nc2)CC1
viability, T/C, %: 32.7

# ---- query compound ----
# viability, T/C measured on 845751-090-R-J2-PDC tumor spheroid viability for item Cn1nccc1Nc1nccc(-c2ccn(C(CO)c3ccc(Cl)c(F)c3)c(=O)c2)n1 (stereo not drawn) + CCN1CCN(Cc2ccc(Nc3ncc(F)c(-c4cc(F)c5nc(C)n(C(C)C)c5c4)n3)nc2)CC1 = 156

* * *

In this section, each of the compounds is paired with its reported viability, T/C.
Test system: 845751-090-R-J2-PDC tumor spheroid viability
Assay: Anticancer human tumor 845751-090-R-J2-PDC cell line growth inhibition [IpAb];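 also: spheroids exposed to compounds for 7 days before readout; CTG3D luminescence normalised so that 100% = DMSO vehicle control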
Settings: second compound 0.01 µM; first compound 0.1 µM; stronger effect = lower value; spheroids with HUVEC and MSC
Please respond with the number in % and leave the unit unwritten.

For orientation, consider the following solved cases.
Compound: Cc1nc(NC(=O)N2CCCC2C(N)=O)sc1-c1ccnc(C(C)(C)C(F)(F)F)c1 (stereo not given) + CCN1CCN(Cc2ccc(Nc3ncc(F)c(-c4cc(F)c5nc(C)n(C(C)C)c5c4)n3)nc2)CC1
Tested system: 845751-090-R-J2-PDC tumor spheroid viability
Units of measure: %
viability, T/C: 46.2
--
Compound: COc1c(OCCCN2CCOCC2)ccc2c3n(c(=NC(=O)c4cnc(N)nc4)nc12)CCN3 + CCN1CCN(Cc2ccc(Nc3ncc(F)c(-c4cc(F)c5nc(C)n(C(C)C)c5c4)n3)nc2)CC1
Tested system: 845751-090-R-J2-PDC tumor spheroid viability
Units of measure: %
viability, T/C: 13.7
--
Compound: Cn1nccc1Nc1nccc(-c2ccn(C(CO)c3ccc(Cl)c(F)c3)c(=O)c2)n1 (stereo not given) + CCN1CCN(Cc2ccc(Nc3ncc(F)c(-c4cc(F)c5nc(C)n(C(C)C)c5c4)n3)nc2)CC1
Tested system: 845751-090-R-J2-PDC tumor spheroid viability
Units of measure: %
viability, T/C: 202
--
Compound: Cn1ncc(Cl)c1-c1cc(C(=O)NC(CN)Cc2cccc(F)c2)sc1Cl (stereo not given) + CCN1CCN(Cc2ccc(Nc3ncc(F)c(-c4cc(F)c5nc(C)n(C(C)C)c5c4)n3)nc2)CC1
Tested system: 845751-090-R-J2-PDC tumor spheroid viability
Units of measure: %
viability, T/C: 58
--
Compound: CC(C)n1nc(-c2ccc3oc(N)nc3c2)c2c(N)ncnc21 + CCN1CCN(Cc2ccc(Nc3ncc(F)c(-c4cc(F)c5nc(C)n(C(C)C)c5c4)n3)nc2)CC1
Tested system: 845751-090-R-J2-PDC tumor spheroid viability
Units of measure: %
viability, T/C: 21.1

Input Cn1ncnc1[C@H]1c2n[nH]c(=O)c3cc(F)cc(c23)N[C@@H]1c1ccc(F)cc1 + CCN1CCN(Cc2ccc(Nc3ncc(F)c(-c4cc(F)c5nc(C)n(C(C)C)c5c4)n3)nc2)CC1 . Output viability, T/C: 70.9

Kindly note the recorded viability, T/C for C=CC(=O)N1CCN(c2nc(=O)n(-c3c(C)ccnc3C(C)C)c3nc(-c4c(O)cccc4F)c(F)cc23)C(C)C1 (stereo not given) + CCN1CCN(Cc2ccc(Nc3ncc(F)c(-c4cc(F)c5nc(C)n(C(C)C)c5c4)n3)nc2)CC1 , which is 96.3

Recorded viability, T/C (compound CCCS(=O)(=O)Nc1ccc(F)c(C(=O)c2c[nH]c3ncc(-c4ccc(Cl)cc4)cc23)c1F + CCN1CCN(Cc2ccc(Nc3ncc(F)c(-c4cc(F)c5nc(C)n(C(C)C)c5c4)n3)nc2)CC1 ): 70.8

Given item C=CCn1c(=O)c2cnc(Nc3ccc(N4CCN(C)CC4)cc3)nc2n1-c1cccc(C(C)(C)O)n1 + CCN1CCN(Cc2ccc(Nc3ncc(F)c(-c4cc(F)c5nc(C)n(C(C)C)c5c4)n3)nc2)CC1 , the value recorded as its viability, T/C is 68.3

Reported viability, T/C of CC1(C)CCC(CN2CCN(c3ccc(C(=O)NS(=O)(=O)c4ccc(NCC5CCOCC5)c([N+](=O)[O-])c4)c(Oc4cnc5[nH]ccc5c4)c3)CC2)=C(c2ccc(Cl)cc2)C1 + CCN1CCN(Cc2ccc(Nc3ncc(F)c(-c4cc(F)c5nc(C)n(C(C)C)c5c4)n3)nc2)CC1 : 119
